Assayed system: Histamine H4 receptor (Homo sapiens, UniProt Q9H3N8)
Sequence (Q9H3N8 whole entry, the tested form may be a part): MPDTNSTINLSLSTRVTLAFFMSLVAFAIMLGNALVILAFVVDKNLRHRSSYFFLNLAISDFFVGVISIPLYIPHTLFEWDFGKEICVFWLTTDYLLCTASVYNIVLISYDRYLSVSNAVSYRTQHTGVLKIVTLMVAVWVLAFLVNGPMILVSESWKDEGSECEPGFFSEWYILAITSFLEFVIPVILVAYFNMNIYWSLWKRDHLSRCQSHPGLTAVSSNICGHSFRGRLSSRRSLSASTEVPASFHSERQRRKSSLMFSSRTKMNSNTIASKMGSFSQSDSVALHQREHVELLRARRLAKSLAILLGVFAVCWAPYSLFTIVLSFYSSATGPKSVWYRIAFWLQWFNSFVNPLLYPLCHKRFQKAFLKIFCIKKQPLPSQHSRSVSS
Protocol text: Inhibition of UR-DEBa242 binding to human recombinant NLuc/GPCR-fused H4R expressed in HEK293T cells measured after 30 mins by furimazine substrate based BRET assay
Assay type: cell-based, HEK-293T
Measurement kind: Ki (nM)

In [3]: df
Out[3]:
                        given_smiles  measurement_kind  recorded_number
0  NC(=NCc1ccc(Cl)cc1)SCCCc1cnc[nH]1                Ki             77.6

---

Organism: Homo sapiens
Parameters: reference not given here
Measurement kind: Ratio Ki

>>> df
                               given_smiles  recorded_number
0                           NCCCCc1c[nH]cn1             2.95
1  Cc1cc(/C=C/C=C/c2ccc(N(C)C)cc2)cc(C)[n+]1CCc1c[nH]cn1             2.29
2  Cc1cc(/C=C/C=C/c2ccc(N(C)C)cc2)cc(C)[n+]1CCCNCCc1c[nH]cn1             69.2
3                          NCCCCCc1c[nH]cn1               17
4                            NCCCc1c[nH]cn1             0.34

# credit: ChEMBL document CHEMBL4602733
